Origin of the recorded values: patent US9790169B2

Experimental Target: human IDO1 (Homo sapiens, UniProt P14902)
Sequence (P14902 whole entry): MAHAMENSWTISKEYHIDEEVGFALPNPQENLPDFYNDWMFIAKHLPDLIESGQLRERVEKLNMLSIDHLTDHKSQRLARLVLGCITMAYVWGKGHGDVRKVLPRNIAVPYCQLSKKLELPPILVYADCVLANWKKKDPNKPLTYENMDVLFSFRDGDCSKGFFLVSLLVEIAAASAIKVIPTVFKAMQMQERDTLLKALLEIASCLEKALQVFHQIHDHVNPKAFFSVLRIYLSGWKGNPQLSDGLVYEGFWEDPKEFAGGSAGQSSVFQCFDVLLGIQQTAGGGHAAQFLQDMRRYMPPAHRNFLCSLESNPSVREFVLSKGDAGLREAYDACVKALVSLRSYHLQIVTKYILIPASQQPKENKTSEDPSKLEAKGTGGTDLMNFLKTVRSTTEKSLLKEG
Experimental Protocol: Assessment of human IDO-1 inhibitory activity in HEK cells (human IDO1/HEK293 cells, kynurenine read-out with Ehrlich reagent, absorbance 490 nm)
Type: cell-based
Design: expressed in transfected cells
Measurement Context: HEK Human IDO-1 cellular assay
Description: Exemplary compounds were tested for inhibition of IDO activity. Assessment of Human IDO-1 Inhibitory Activity in HEK Cells HEK293 cells were transfected with a pCDNA-based mammalian expression vector harboring human IDO1 cDNA (NM 002164.2) by electroporation. […] The compound treatments were stopped by adding trichloroacetic acid (Sigma-Aldrich) to a final concentration at 0.2%. […] The absorbance at 490 nm was measured on Envision plate reader. […]
Measured Metric: IC50

{"Molecule": "Cc1ccc(CC(=O)Nc2cc(C(CC(=O)O)C(C)C)ccc2N(C)C(C)(C)C)cc1 (single isomer, unassigned)", "Experimental Target": "human IDO1 (Homo sapiens, UniProt P14902)", "Measured Metric": "IC50", "Result": "> 50 nM"}
{"Molecule": "CCN(c1ccc(C(C)CC(=O)O)cc1NC(=O)Nc1ccc(C)cc1)C1CCOCC1 (single isomer, unassigned) [Example 639]", "Experimental Target": "human IDO1 (Homo sapiens, UniProt P14902)", "Measured Metric": "IC50", "Result": "< 50 nM"}
{"Molecule": "CCOc1ccc(NC(=O)Nc2cc(C(COC)CC(=O)O)cc(F)c2N(CC(C)C)C2CCCCC2)c(F)c1 (single isomer, unassigned)", "Experimental Target": "human IDO1 (Homo sapiens, UniProt P14902)", "Measured Metric": "IC50", "Result": "< 5 nM"}
{"Molecule": "CCCN(CC1CC1)c1ccc(C(CC)CC(=O)O)cc1Nc1cnc(OCC)nc1 (single isomer, unassigned) [Example 657]", "Experimental Target": "human IDO1 (Homo sapiens, UniProt P14902)", "Measured Metric": "IC50", "Result": "< 50 nM"}
{"Molecule": "CCN(c1ccc(C(C)CC(=O)O)cc1Nc1cnc(OCC2CC2)nc1)C1CCOCC1 (single isomer, unassigned)", "Experimental Target": "human IDO1 (Homo sapiens, UniProt P14902)", "Measured Metric": "IC50", "Result": "< 50 nM"}
{"Molecule": "CCOc1ncc(Nc2cc(C(CC)CC(=O)O)ccc2N2CCC[C@H]2C(C)(C)O)cn1 (single isomer, unassigned) [Example 839]", "Experimental Target": "human IDO1 (Homo sapiens, UniProt P14902)", "Measured Metric": "IC50", "Result": "> 50 nM"}
{"Molecule": "CCOc1ccc(NC(=O)Nc2cc(C(COC)CC(=O)O)ccc2N(CC(C)C)C2CCOCC2)cc1 (single isomer, unassigned)", "Experimental Target": "human IDO1 (Homo sapiens, UniProt P14902)", "Measured Metric": "IC50", "Result": "> 50 nM"}
{"Molecule": "CC[C@@H](CC(=O)O)c1ccc(N2C[C@@H](C)O[C@@H](C)C2)c(NC(=O)Nc2ccc(C)cc2)c1 (single isomer, unassigned)", "Experimental Target": "human IDO1 (Homo sapiens, UniProt P14902)", "Measured Metric": "IC50", "Result": "> 50 nM"}
{"Molecule": "CCOc1cnc(Nc2cc(C(C)CC(=O)O)ccc2N(CC)C2CCOCC2)cn1 (single isomer, unassigned)", "Experimental Target": "human IDO1 (Homo sapiens, UniProt P14902)", "Measured Metric": "IC50", "Result": "< 5 nM"}
{"Molecule": "Cc1cc(NC(=O)Nc2cc(C(CC(=O)O)C3CC3)ccc2N(CC(C)C)C2CCOCC2)no1 (single isomer, unassigned) [Example 1201 Enantiomer 1]", "Experimental Target": "human IDO1 (Homo sapiens, UniProt P14902)", "Measured Metric": "IC50", "Result": "< 50 nM"}
{"Molecule": "COCC(CC(=O)O)c1ccc(N(CC(C)C)C2CCCCC2)c(NC(=O)Nc2cncnc2)c1 (racemic) [Example 990]", "Experimental Target": "human IDO1 (Homo sapiens, UniProt P14902)", "Measured Metric": "IC50", "Result": "< 50 nM"}
{"Molecule": "CC[C@H](CC(=O)O)c1ccc(N(CC)C2CCOCC2)c(Nc2cn3ccnc3cn2)c1 (single isomer, unassigned)", "Experimental Target": "human IDO1 (Homo sapiens, UniProt P14902)", "Measured Metric": "IC50", "Result": "> 50 nM"}
{"Molecule": "COCC(CC(=O)O)c1cc(F)c(N(CC(C)C)C2CCCCC2)c(NC(=O)Cc2ccc(Cl)cc2F)c1 (single isomer, unassigned)", "Experimental Target": "human IDO1 (Homo sapiens, UniProt P14902)", "Measured Metric": "IC50", "Result": "< 50 nM"}
